# System Name: GST-tagged KRAS-G12V (2-169) (Homo sapiens, UniProt P01116, G12V)
# Sequence (P01116 2-169 isoform P01116-2 G12V): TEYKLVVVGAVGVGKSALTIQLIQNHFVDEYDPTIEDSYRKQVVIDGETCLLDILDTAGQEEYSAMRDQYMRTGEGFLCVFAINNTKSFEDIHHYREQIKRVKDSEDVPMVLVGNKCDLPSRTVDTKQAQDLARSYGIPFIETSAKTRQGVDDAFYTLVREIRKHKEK
# Procedure Text: Nucleotide exchange assay (NEA), SOS-mediated, HTRF, KRAS G12V
# Assay Context: Table 4; IC50 extracted at 90 min; 80 nM SOS
# Source text: This activity is tightly regulated by GTPase activating proteins (GAPs) and guanine nucleotide exchange factors (GEFs). […] Homogenous time resolved fluorescence (HTRF) was used to detect SOS-mediated binding of a fluorescent GTP analog, GTP-DY-647P1 (Jena Biosciences NU-820-647P1) to GST-tagged KRAS-G12D (2-169) or to GST-tagged KRAS-G12V (2-169, Reaction Biology, MSC-11-540). […]
pIC50: −log10 of the molar value.
Endpoint: pIC50

{"Compound": "N#Cc1c(N)sc2c1C1(CN(c3nc(OC[C@@]45CCCN4C[C@H](F)C5)nc(N(CC(N)=O)Cc4cccnc4N)n3)C1)SC2", "pIC50": "> 8.00"}
{"Compound": "CN(Cc1c(F)ccnc1N)c1nc(OC[C@@]23CCCN2C[C@H](F)C3)nc(N2CC3(C2)SCc2sc(N)c(C#N)c23)n1", "pIC50": "> 8.00"}
{"Compound": "CN(Cc1c(O)ccnc1N)c1nc(OC[C@@]23CCCN2C[C@H](F)C3)nc(N2CC3(C2)SCc2sc(N)c(C#N)c23)n1", "pIC50": "7.00 to 8.00"}
{"Compound": "C[C@@]1(O)CCCN(c2nc(OC[C@@]34CCCN3C[C@H](F)C4)nc(N3CCC4(CCCc5sc(N)c(C#N)c54)C3)n2)C1 (stereo partly shown)", "pIC50": "4.70 to 6.00"}
{"Compound": "N#Cc1c(N)sc2c1C1(CC2)CN(c2nc(OCC3(C#N)CC3)nc(OC[C@@]34CCCN3C[C@H](F)C4)n2)C1", "pIC50": "7.00 to 8.00"}
{"Compound": "N#Cc1c(N)sc2c1C1(CN(c3nc(OCC4(CN5CCOCC5)CC4)nc(N4CCNC[C@@H]4CO)n3)C1)SC2", "pIC50": "6.00 to 7.00"}
{"Compound": "CN(c1nc(OC[C@@]23CCCN2C[C@H](F)C3)nc(N2CC3(C2)SCc2sc(N)c(C#N)c23)n1)C1CC1", "pIC50": "7.00 to 8.00"}
{"Compound": "N#CCC1C=C(F)CN(c2nc(OC[C@@]34CCCN3C[C@H](F)C4)nc(N3CC4(CCc5sc(N)c(C#N)c54)C3)n2)C1 (stereo partly shown)", "pIC50": "7.00 to 8.00"}

Looking up CC(c1nsnc1N)N(C)c1nc(OC[C@@]23CCCN2C[C@H](F)C3)nc(N2CC3(C2)SCc2sc(N)c(C#N)c23)n1 (stereo partly shown) [Compound 174] , I see its pIC50 listed as > 8.00

For N#Cc1c(N)sc2c1C1(CC2)CN(c2nc(OC[C@@]34CCCN3C[C@H](F)C4)nc(N3CCOCC(C#N)C3)n2)C1 (single isomer, unassigned) [Compound 91A] the compound record lists pIC50 as > 8.00

pIC50 reported for this compound N#Cc1c(N)sc2c1C1(CN(c3nc(OCC4(CN5CCOCC5)CC4)nc(N4CCNC[C@H]4CO)n3)C1)SC2 : 7.00 to 8.00

Lab note: measured pIC50 of CN(Cc1cnsc1)c1nc(OC[C@@]23CCCN2C[C@H](F)C3)nc(N2CC3(CCc4sc(N)c(C#N)c43)C2)n1 was 7.00 to 8.00

pIC50 reported for this compound N#Cc1c(N)sc2c1C1(CN(c3nc(OC[C@@]45CCCN4C[C@H](F)C5)nc(N4C5CSCC4C5)n3)C1)SC2 : 7.00 to 8.00

Recorded result, CCN(c1nc(OC[C@@]23CCCN2C[C@H](F)C3)nc(N2CC3(C2)SCc2sc(N)c(C#N)c23)n1)C(C)c1nccnc1N (single isomer, unassigned) [Compound 168B] , pIC50: > 8.00

CC(c1ccns1)N(C)c1nc(OC[C@@]23CCCN2C[C@H](F)C3)nc(N2CC3(CCc4sc(N)c(C#N)c43)C2)n1 (stereo partly shown) has a reported pIC50 of > 8.00

Memo: N#Cc1c(N)sc2c1C1(CC2)CN(c2nc(OC[C@@]34CCCN3C[C@H](F)C4)nc(N3CCCC4(C3)NC(=O)NC4=O)n2)C1 (stereo partly shown) , reported pIC50: > 8.00

The measured pIC50 associated with CCN(c1nc(OC[C@@H]2CC[C@H]3CN(C)CCN23)nc(N2CC3(C2)SCc2sc(N)c(C#N)c23)n1)[C@H](C)c1cccnc1N (mixture of isomers) reads > 8.00

The compound identified as N#Cc1c(N)sc2c1C1(CC2)CN(c2nc(OCC3(CN4CCOCC4)CC3)nc(N3CCCCC(C#N)C3)n2)C1 (stereo not shown) registered its pIC50 at 7.00 to 8.00

Record C[C@H](c1cc(N)ncc1F)N(C)c1nc(OC[C@@]23CCCN2C[C@H](F)C3)nc(N2CC3(CCc4sc(N)c(C#N)c43)C2)n1 . Reported pIC50: > 8.00

Per the records, this compound ( N#Cc1c(N)sc2c1C1(CC2)CN(c2nc(OC[C@@]34CCCN3C[C@H](F)C4)nc(N3CC[C@@H](O)[C@@H](O)C3)n2)C1 (racemic) ) has pIC50 equal to 7.00 to 8.00

Short answer for CN(C)CC1(COc2nc(N3CCOCC(C)(O)C3)nc(N3CC4(C3)SCc3sc(N)c(C#N)c34)n2)CC1(F)F (stereo not shown) : pIC50 was > 8.00

Looking up N#Cc1c(N)sc2c1C1(CC2)CN(c2nc(OC[C@@]34CCCN3C[C@H](F)C4)nc(N3CCC[C@@H](CO)C3)n2)C1 , I found its pIC50 recorded as 7.00 to 8.00

Just so you know, measured pIC50 for CCN(c1nc(OCC23CCCN2CCN(C)C3)nc(N2CC3(C2)SCc2sc(N)c(C#N)c23)n1)[C@H](C)c1cccnc1N (stereo partly shown) came out at > 8.00

Short answer for CC1(NC#N)CCCN(c2nc(OC[C@@]34CCCN3C[C@H](F)C4)nc(N3CC4(CCc5sc(N)c(C#N)c54)C3)n2)C1 (stereo partly shown) : pIC50 was 7.00 to 8.00

The reported pIC50 of the compound C[C@]1(O)C[C@@H](O)CN(c2nc(OC[C@@]34CCCN3C[C@H](F)C4)nc(N3CC4(CCc5sc(N)c(C#N)c54)C3)n2)C1 was 7.00 to 8.00
